The values you see were collected from ChEMBL document CHEMBL2375293.

- measurement_notes: Apparent permeability across human Caco2 cells at 10 uM by LC-MS/MS analysis
- Type: ADME, cell-based
- setup_conditions: Caco-2
Reported values of Papp at 10 µM for individual entries
State just the number; it will be interpreted in ×10⁻⁶ cm/s.

CN1CCc2cc(-c3ccc4oc5c(-c6ccccc6)nc(=O)n(CCN6CCC(F)(F)C6)c5c4c3)ccc2C1: 0.55

Query: I'd like to know its Papp at 10 µM. The compound in question is CN1CCc2cc(-c3ccc4oc5c(-c6ccccc6)nc(=O)n(CCN6CCCC6C(N)=O)c5c4c3)ccc2C1 (stereo not drawn)
Result: 0.17

----------
- measurement_notes: Cytotoxicity against human C8166 cells assessed as inhibition of cell viability after 3 days by MTT assay
- Assay type: cell-based
outcome_measure: CC50 at 72 h

COCCn1c(=O)nc(-c2ccc(NCCN3CCCC3)cc2)c2oc3ccccc3c21: > 7.4 µM
COCCn1c(=O)nc(-c2cnc(N3CCN(C)CC3)nc2)c2oc3ccccc3c21: > 9.5 µM
COCCn1c(=O)nc(-c2ccc(N3CCNCC3)cc2)c2oc3ccc(Cl)cc3c21: 2.7 µM
CCNCc1nc2cc(-c3nc(=O)n(CCOC)c4c3oc3ccc(Br)cc34)ccc2n1C: > 4.4 µM

Query: CC50 at 72 h; subject: NC(=O)C1CCCN1CCn1c(=O)nc(-c2ccccc2)c2oc3ccc(Cl)cc3c21 (stereo not given)
Result: > 6.7 µM

----------
- measurement_notes: Inhibition of HIV1 BH10 reverse transcriptase using poly(rA)/oligo(dT)15 as substrate after 60 mins by fluorescence assay
- Design: species or system Human immunodeficiency virus type 1 BH10
Classification scheme (IC50): band A (below 50 nM), band B (50 nM to below 900 nM), band C (900 nM or more)

CCNCC(=O)Nc1ccc(-c2nc(=O)n(CCOC)c3c2oc2ccc(-c4ccc(CO)cc4)cc23)cc1: band A

Query: Which class holds `CCNCC(=O)Nc1ccc(-c2nc(=O)n(CCOC)c3c2oc2ccccc23)cc1` ?
Result: band B

Query: # bin label for `CCNCc1nc2cc(-c3nc(=O)n(CCOC)c4c3oc3ccc(Br)cc34)ccc2n1C`
Result: band A

Query: Any idea which band `COCCn1c(=O)nc(-c2ccc(C(=O)NCCN(C)C)cc2)c2oc3ccccc3c21` is in?
Result: band C

Query: Sort `CCNCC(=O)Nc1ccc(-c2nc(=O)n(CCOC)c3c2oc2ccc(Cl)cc23)cc1` into one of the categories.
Result: band A

Query: Determine which band this compound sits in: `CN(C)CC(=O)Nc1ccc(-c2nc(=O)n(C)c3c2oc2ccccc23)cc1`
Result: band C

Query: Form field 'band' for `COCCn1c(=O)nc(-c2cnc(N3CCN(C)CC3)nc2)c2oc3ccccc3c21`
Result: band B

----------
- measurement_notes: Cytotoxicity against human C8166 cells assessed as inhibition of cell viability at CC50 after 3 days by MTT assay
- Assay type: cell-based
- setup_conditions: read-out: INH
In plain terms, low cytotoxicity at 72 h, meaning strictly below 20%, gives True, and everything else gives False.

Previously resolved entries follow.
COCCn1c(=O)nc(-c2ccc(NC(=O)C(C)N(C)C)cc2)c2oc3ccccc3c21 (stereo not given): True
COCCn1c(=O)nc(-c2ccc(NC(=O)CN(C)C)cc2)c2oc3ccccc3c21: True
O=c1nc(-c2ccccc2)c2oc3ccc(Cl)cc3c2n1CCN1CCCC1: True

Query: Does `COCCn1c(=O)nc(-c2ccc(N3CCN(C)CC3)nc2)c2oc3ccc(Cl)cc3c21` have cytotoxicity at 72 h strictly under 20%?
Result: False
